B1: library; a variant is named by its letters at N, in order (parent)
chain: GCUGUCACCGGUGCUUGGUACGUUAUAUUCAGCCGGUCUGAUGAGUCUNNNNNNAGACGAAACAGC

variants of: B1; experiment: normalized RNA/DNA level with ligand (relative to sTRSVctl = 100) (log10 (% of sTRSVctl)); HEK293T overexpressing SLC46A1; ligand concentration (+) RNA-Seq: 6 mM; higher = less ribozyme self-cleavage, higher mRNA level; conditions: with (6R,S)-folinic acid; ligand present: yes
Respond with TRUE for normalized RNA/DNA level with ligand (log10) values of 2 and above, FALSE for values below.

{"columns": ["VARIANT", "LABEL_VALUE"],
 "data": [
  ["UCUGUC", "TRUE"],
  ["CUCCUG", "TRUE"],
  ["AAGGUA", "FALSE"],
  ["UGAAUC", "TRUE"]
]}

Now examine the next entry.
Request: hey, is normalized RNA/DNA level with ligand (log10) for this one >= 2? GGGCGU
Result: TRUE

Where do these numbers come from? They come from the supplement of paper PMC6757056.
